# protocol notes: Equilibrium association (binding) constant interacting with Unilamellar Vesicles of negatively charged DMPG in PBS buffer at pH 7.4 and 37 C
# Type: ADME
readout name: K DMPG

Report K DMPG for CCC1(O)CC(=O)OCc2c1cc1n(c2=O)Cc2c-1nc1ccc(N)cc1c2[Si](C)(C)C (stereo not drawn) 800 M⁻¹

Report K DMPG for CCC(O)(CC(=O)O)c1cc2n(c(=O)c1CO)Cc1c-2nc2ccc(O)cc2c1[Si](C)(C)C(C)(C)C (stereo not drawn) 100 M⁻¹

Report K DMPG for `CC[C@@]1(O)C(=O)OCc2c1cc1n(c2=O)Cc2cc3c(CN(C)C)c(O)ccc3nc2-1` 50 M⁻¹

Report K DMPG for CCC1(O)CC(=O)OCc2c1cc1n(c2=O)Cc2c-1nc1ccc(N)cc1c2[Si](C)(C)C(C)(C)C (stereo not drawn) 9000 M⁻¹

Report K DMPG for CCC(O)(CC(=O)O)c1cc2n(c(=O)c1CO)Cc1c-2nc2ccc(N)cc2c1[Si](C)(C)C(C)(C)C (stereo not drawn) 80 M⁻¹

Report K DMPG for CCC1(O)CC(=O)OCc2c1cc1n(c2=O)Cc2c-1nc1ccc(O)cc1c2[Si](C)(C)C(C)(C)C (stereo not drawn) 4000 M⁻¹

Report K DMPG for `CC[C@@]1(O)C(=O)OCc2c1cc1n(c2=O)Cc2cc3ccccc3nc2-1` 100 M⁻¹

Report K DMPG for CCC1(O)CC(=O)OCc2c1cc1n(c2=O)Cc2c-1nc1ccccc1c2[Si](C)(C)C(C)(C)C (stereo not drawn) 19000 M⁻¹

====

Entries and their remaining at 3 h, 1 µM
# protocol notes: Stability parameter for the compound at a concentration of 1 uM in phosphate-buffered saline(PBS, pH 7.4) after 3h
# Format: physicochemical
# condition: read-out: Lactone
Kindly answer with a numeric value in %, unit omitted.

Record excerpt, results attached:
| molecule | remaining at 3 h, 1 µM, % |
| --- | --- |
| CCC1(O)CC(=O)OCc2c1cc1n(c2=O)Cc2c-1nc1ccc(N)cc1c2[Si](C)(C)C(C)(C)C (centres undefined) | 83.7 |
| CCC1(O)CC(=O)OCc2c1cc1n(c2=O)Cc2c-1nc1ccccc1c2[Si](C)(C)C(C)(C)C (centres undefined) | 84.9 |
| CCC1(O)CC(=O)OCc2c1cc1n(c2=O)Cc2c-1nc1ccc(N)cc1c2[Si](C)(C)C (centres undefined) | 82.8 |

# evaluate next
Report remaining at 3 h, 1 µM for CCC1(O)CC(=O)OCc2c1cc1n(c2=O)Cc2c-1nc1ccc(O)cc1c2[Si](C)(C)C(C)(C)C (centres undefined) 83.1
